System: DU-145 prostate
Procedure Summary: NCI tumour cell line growth inhibition, 48 h; in the data active = GI50 below about 0.43 µM; inactive = the rest
Allowed answers: active, inactive

Query string: What outcome does the record of this test show for `C[n+]1c2ccccc2c(NC2CCNCC2)c2[nH]c3ccccc3c21` ?
Result string: active

Query string: Please share the test call associated with `Cc1c2c(nn1-c1ccc(S/N=C3\SCC(=O)CN3c3ccccc3)cc1)-c1ccccc1CC2` .
Result string: inactive

Query string: What did the test return for `CO/N=C1/c2cc(OC)ccc2-c2c(NOC)nc3ccccc3c21` ?
Result string: inactive

Query string: // outcome(item) with item = `COc1ccccc1Nc1nc(-c2cc3cccc(C(F)(F)F)c3oc2=O)cs1`
Result string: active

Query string: Per the records of this test, what outcome belongs to O=C(NC(=S)NS(=O)(=O)c1ccc(N2N=C3c4ccccc4CC3C2c2cccs2)cc1)c1ccccc1 (stereo not given) ?
Result string: inactive

====

Test system: HL-60(TB) leukemia
Procedure Summary: NCI tumour cell line growth inhibition, 48 h
Recorded log10 of TGI by entry
A value of 2 here means TGI of 100 in µM, since values are log10.

Compound: Cc1nc2cc(O)c(O)cc2cc1Oc1ccc(NC(=O)Nc2ccc(Cl)c(Cl)c2)cc1
Assayed System: HL-60(TB) leukemia
Observed Measurement: 1.35
--
Compound: COc1cc2c(cc1-c1c(C)noc1C)ncc1nc(C3CCCCC3)n(C3CCC(OC(F)F)CC3)c12 (stereo not drawn)
Assayed System: HL-60(TB) leukemia
Observed Measurement: 0.60
--
Compound: Nc1nc(Cl)nc2c1ncn2C1O[C@H](CO)[C@@H](O)[C@@H]1F (stereo partly drawn)
Assayed System: HL-60(TB) leukemia
Observed Measurement: -0.85
--
Compound: CCN(CCCl)CCNc1c2ccccc2nc2ccc(OC)cc12
Assayed System: HL-60(TB) leukemia
Observed Measurement: 0.59
--
Compound: CCOc1ccc(NC(=O)C2=C(C)NC(C)=C(C(=O)Nc3ccc(OCC)cc3)C2c2ccc([N+](=O)[O-])cc2)cc1
Assayed System: HL-60(TB) leukemia
Observed Measurement: 1.72
--
Compound: C=C1C(=O)O[C@H]2[C@H]1CC/C(COC(=O)CCC(=O)OC/C1=C/CC[C@@]3(C)O[C@H]3[C@H]3OC(=O)C(=C)[C@@H]3CC1)=C\CC[C@@]1(C)O[C@@H]21
Assayed System: HL-60(TB) leukemia
Observed Measurement: -0.09
--
Compound: Cc1cc(SCC(=O)c2ccc(Br)cc2)cc(C)[o+]1
Assayed System: HL-60(TB) leukemia
Observed Measurement: 1.53

Query string: For the compound `CN1CCN(c2ccc3nc(-c4ccc(OCCCN5C(=O)c6cccc7cccc(c67)C5=O)cc4)[nH]c3c2)CC1` , what log10 of TGI is on record?
Result string: 0.87

====

Quick reference: TGI of the listed items.
Tested on: K-562 leukemia
Procedure Summary: NCI tumour cell line growth inhibition, 48 h
Where a SMILES comes first, the peptide text is derived from it. The star is where a group is joined. Boc = CC(C)(C)OC(=O)*; OBn = c1ccc(CO*)cc1; Bn = c1ccc(C*)cc1

Recorded results for 5 compounds are shown here.
Compound: Cc1c(Cl)cccc1NC(=O)C(=O)C1C(=O)NC(=O)NC1=O
Observed Measurement: > 100 µM
//
Compound: CCOC(=O)c1c(NC(=S)NCc2ccccc2)sc2c1CCN(C)C2
Observed Measurement: 46.1 µM
//
Compound: CC(C)CC(NC(=O)C(Cc1ccccc1)NC(=O)C(COCc1ccccc1)NC(=O)OC(C)(C)C)C(=O)OCc1ccccc1 (stereo not drawn) (Boc-Ser(Bn)-Phe-Leu-OBn; configuration not given here)
Observed Measurement: 45.2 µM
//
Compound: Cc1cc(Cl)ccc1NC(=O)C1C(=O)N(c2ccc(Cl)cc2C)C(=O)/C1=N\N (stereo not given)
Observed Measurement: > 100 µM
//
Compound: NC(=O)NC(=O)CI
Observed Measurement: 3.6 µM

Attention now turns to another entry.
Query string: Fill blank: measured TGI of the compound Cc1ccc(S(=O)(=O)OC2CN3CCC2CC3)cc1 (stereo not given) is ____.
Result string: > 100 µM

====

System: OVCAR-3 ovarian
Procedure Summary: NCI tumour cell line growth inhibition, 48 h
Measure: TGI

Use the examples below as a reference point.
Line Notation: Cc1cn2c(/C=C3/C(=O)Nc4ccccc43)c(-c3ccccc3)nc2s1
TGI: > 100 µM
--
Line Notation: Cc1nc2c(=O)[nH]c(=O)nc-2n(CCO)c1C
TGI: > 100 µM
--
Line Notation: C[N+](C)(C)CCCCCc1c2nc(c(CCCCC[N+](C)(C)C)c3ccc([nH]3)c(CCCCC[N+](C)(C)C)c3ccc([nH]3)c(CCCCC[N+](C)(C)C)c3nc1C=C3)C=C2
TGI: > 100 µM
--
Line Notation: N#C/C(=C/N1CCN(C(=O)c2ccco2)C1=S)C(N)=O
TGI: 59.8 µM

Next up:
Query string: Tell me the measured TGI of `COC(=O)CCCc1ccc2c(c1)CCC2` , please.
Result string: > 100 µM

====

Recorded TGI, one value per entry.
Test system: BT-549 breast
Procedure Summary: NCI tumour cell line growth inhibition, 48 h

Compound: Cc1cn2c(/C=C3/C(=O)Nc4ccccc43)c(-c3ccccc3)nc2s1
Observed Measurement: > 100 µM

Compound: CC(=O)OCc1ccc(-c2nc(C#N)c(N)o2)o1
Observed Measurement: > 10 µM

Compound: CCCCCCCCSC1=CC(=O)C(OC)=C(OC)C1=O
Observed Measurement: 19.4 µM

Compound: COc1ccc(C2CC(c3cc(OC)c(OC)c(OC)c3)=NN2)cc1 (stereo unspecified)
Observed Measurement: > 100 µM

Compound: CCC(C#N)N(Cc1cccc(CN(C(C)=O)C(C#N)CC)c1)C(C)=O (stereo unspecified)
Observed Measurement: > 100 µM

Continue with the next compound.
Query string: Field request: TGI | item: `CNCCNc1nc2ccccc2c2c(=O)c3cccc(OC)c3sc12`
Result string: 3.65 µM

====

System: LOX IMVI melanoma
Procedure Summary: NCI tumour cell line growth inhibition, 48 h
Where a SMILES comes first, the peptide text is derived from it. The star is where a group is joined. Boc = CC(C)(C)OC(=O)*; OBn = c1ccc(CO*)cc1; Bn = c1ccc(C*)cc1
Catalogue of TGI readings, one per entry.
Just the number please, in µM, no unit attached.

The following compounds have reported results that may help.
Compound: CCCNc1nc(-c2ccc(OC)cc2)nc2ccccc12
Measure: TGI
Observed Measurement: 37.5
//
Compound: C=C1C(=O)O[C@H]2[C@H]1CC/C(Cn1cc(CCC)nn1)=C\CC[C@@]1(C)O[C@@H]21
Measure: TGI
Observed Measurement: 16.9
//
Compound: COc1ccc(OC)c2c1C[C@@H]1C(C#N)N3[C@H](Cc4c(OC)ccc(OC)c4[C@@H]3C)C(=O)N1[C@H]2C (stereo not given in full)
Measure: TGI
Observed Measurement: 5.95

Query string: Which value of TGI has been reported for CC(C)CC(NC(=O)C(Cc1ccccc1)NC(=O)C(COCc1ccccc1)NC(=O)OC(C)(C)C)C(=O)OCc1ccccc1 (stereo not drawn) (Boc-Ser(Bn)-Phe-Leu-OBn; configuration not given here) in the records?
Result string: 40.1

====

Tested on: MOLT-4 leukemia
Procedure Summary: NCI tumour cell line growth inhibition, 48 h
Measure: TGI

Compound: Cc1cccc(Nc2cn(CCOc3ccccc3)c(=O)[nH]c2=O)c1
TGI: > 100 µM

Query string: Entry `CC(C)=NN/C(=N\S(=O)(=O)c1cc(Cl)c(Oc2ccc([N+](=O)[O-])cc2Cl)c(Cl)c1)Nc1ccc(Cl)cc1` has what TGI?
Result string: > 100 µM

Query string: Fill in: TGI of `OC(Cn1cncn1)(Cn1cncn1)c1ccc(Cl)cc1Cl` is ___
Result string: > 100 µM

Query string: Which value of TGI has been reported for `COC(=O)CSc1[nH]c2nc(C)nc(Nc3ccccc3)c2c1C#N` in the records?
Result string: > 10 µM

Query string: For the compound shown here, O=C1C(c2ccccc2)=C(c2ccccc2)C(c2ccccc2)/C1=C1\C(=O)C(c2ccccc2)=C(c2ccccc2)C1c1ccccc1 (stereo not drawn) , give the reported TGI.
Result string: > 100 µM

Query string: Suppose we examine the compound `NC(=O)NC(=O)CI` ; what TGI value has been reported?
Result string: 4.13 µM

Query string: Report TGI for COC(=O)CP1(=O)OC2C(C3CCC2(C)C3(C)C)N1c1cc(C(F)(F)F)cc(C(F)(F)F)c1 (stereo not drawn) please.
Result string: 59 µM

Query string: For `Cc1ccccc1NC(=O)c1[nH]c(=S)nc(N)c1-c1ccccc1C` , what is its reported TGI?
Result string: > 100 µM

====

Quick list: TGI per entry.
System: K-562 leukemia
Procedure Summary: NCI tumour cell line growth inhibition, 48 h
Numbers only here, please. The scale is µM.

Compound: Cc1ccc(Cl)cc1Nc1nc(C(F)(F)F)ccc1C(=O)Oc1ccc(Cl)cc1
TGI / µM: 15
--
Compound: N#Cc1c2ccccc2c2nnc3cc(Cl)c(Cl)cc3n12
TGI / µM: 89.1
--
Compound: O=C(Nc1ccccc1Cl)c1ccc(NC2=C(Cl)C(=O)N(Cc3ccccc3)C2=O)cc1
TGI / µM: 49.3

Switching to the query record.
Query string: Query (compound): C=C1C(=O)O[C@H]2C1C[C@@H](O)[C@@]1(C)OC1CC[C@@]1(C)O[C@H]21 (some centres not stated) ; field requested: TGI
Result string: 32.5
